Tested on: wheat (Tr)
Test: Test Example 5: crop plant selectivity by upland field soil treatment (wheat), phytotoxicity
Format: in vivo
Set-up: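 grade of crop injury; 5 = at least 90%; 4 = 70 to 90%; 3 = 50 to 70%; 2 = 30 to 50%; 1 = 10 to 30%; 0 = under 10%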
Details: dose 6.3 g ai/10a, 21st day after application
Description: (Test on Crop Plant Selectivity by Upland Field Soil Treatment) In a plastic pot (surface area: 600 cm^2) filled with sand, wheat (Tr), Diaitaria ciliaris (Di), green foxtail (Se), pale smartweed (Po), slender amaranth (Am), common lambsquarters (Ch) and China jute (Ab) were sown and covered with soil. […]
REPORTED ENDPOINT: Phytotoxicity Tr

[
  {
    "COMPOUND": "Cn1c(C(F)(F)F)ccc(-c2cc(Cl)c(Cl)cc2F)c1=O",
    "RECORDED NUMBER": 2
  },
  {
    "COMPOUND": "Cn1c(C(F)(F)F)ccc(-c2c(F)cc(Cl)c3occc23)c1=O",
    "RECORDED NUMBER": 2
  },
  {
    "COMPOUND": "CON=C(C)c1cc(-c2ccc(C(F)(F)F)n(C)c2=O)c(F)cc1Cl",
    "RECORDED NUMBER": 2
  },
  {
    "COMPOUND": "CCON=Cc1cc(-c2ccc(C(F)(F)F)n(C)c2=O)c(F)cc1Cl",
    "RECORDED NUMBER": 1
  },
  {
    "COMPOUND": "CCOC(=O)c1cc(-c2ccc(C(F)(F)F)n(C)c2=O)c(F)cc1Cl",
    "RECORDED NUMBER": 1
  },
  {
    "COMPOUND": "C#CCN1C(=O)COc2cc(F)c(-c3cc(C)c(C(F)(F)F)n(C)c3=O)cc21",
    "RECORDED NUMBER": 2
  }
]

---

Test system: wheat (Tr)
Test: Test Example 5: crop plant selectivity by upland field soil treatment (wheat), phytotoxicity
Type: in vivo
Design: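 grade of crop injury; 5 = at least 90%; 4 = 70 to 90%; 3 = 50 to 70%; 2 = 30 to 50%; 1 = 10 to 30%; 0 = under 10%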
Settings: dose 1.6 g ai/10a, 21st day after application

[
  {
    "COMPOUND": "C#CCOc1cc(-c2ccc(C(F)(F)F)n(C)c2=O)c(F)cc1Cl [1-18]",
    "Phytotoxicity Tr": 2
  },
  {
    "COMPOUND": "C=CCN1C(=O)COc2cc(F)c(-c3ccc(C(F)(F)F)n(C)c3=O)cc21 [Compound 2-7]",
    "Phytotoxicity Tr": 0
  },
  {
    "COMPOUND": "CON=Cc1cc(-c2ccc(C(F)(F)F)n(C)c2=O)c(F)cc1Cl [Compound No. 1-72]",
    "Phytotoxicity Tr": 1
  }
]

---

System: wheat (Tr)
Assay: Test Example 5: crop plant selectivity by upland field soil treatment (wheat), phytotoxicity
Assay type: in vivo
Parameters: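 grade of crop injury; 5 = at least 90%; 4 = 70 to 90%; 3 = 50 to 70%; 2 = 30 to 50%; 1 = 10 to 30%; 0 = under 10%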
Details: dose 6.3 g ai/10a, 21st day after application

[
  {
    "COMPOUND": "CCc1cc2c(Cl)cc(F)c(-c3ccc(C(F)(F)F)n(C)c3=O)c2o1 [Compound 5-2]",
    "Phytotoxicity Tr": 1
  },
  {
    "COMPOUND": "C#CCn1c(=O)sc2cc(F)c(-c3ccc(C(F)(F)F)n(C)c3=O)cc21 [Compound No. 3-1]",
    "Phytotoxicity Tr": 1
  },
  {
    "COMPOUND": "CCC(C)Oc1cc(-c2ccc(C(F)(F)F)n(C)c2=O)c(F)cc1Cl (centres unmarked) [1-167]",
    "Phytotoxicity Tr": 1
  },
  {
    "COMPOUND": "Cc1cc2c(-c3cn(C)c(C(F)(F)F)cc3=O)c(F)cc(Cl)c2o1 [Compound No. 9-1]",
    "Phytotoxicity Tr": 1
  },
  {
    "COMPOUND": "Cn1cc(-c2cc(Oc3ccccc3)c(Cl)cc2F)c(=O)cc1C(F)(F)F [Compound No. 6-19]",
    "Phytotoxicity Tr": 0
  }
]
